Listed below: melting point values for each entry.
PROPERTY: melting point (°C)

| STRUCTURE_STRING | RECORDED_NUMBER |
| --- | --- |
| COC(=O)Cn1nnnc1COc1cc(-n2c(=O)cc(C(F)(F)F)n(C)c2=O)c(F)cc1Cl | 243 |
| COCn1nnnc1-c1cc(-n2c(=O)cc(C(F)(F)F)n(C)c2=O)ccc1Cl | 182 |
| CCn1nnc(-c2cc(-n3c(=O)cc(C(F)(F)F)n(C)c3=O)ccc2Cl)n1 | 136 |
| CCOC(=O)c1sc(-c2cc(-n3c(=O)cc(C(F)(F)F)n(C)c3=O)ccc2Cl)nc1C | 200 |
